- SUBJECT_OF_TEST: T1, murine LAG3-Fc antigen (R&D Systems, 3328-L3-050) (murine, UniProt Q61790 24-442)
- T1 construct: Bought reagent
- T1 sequence (looked up): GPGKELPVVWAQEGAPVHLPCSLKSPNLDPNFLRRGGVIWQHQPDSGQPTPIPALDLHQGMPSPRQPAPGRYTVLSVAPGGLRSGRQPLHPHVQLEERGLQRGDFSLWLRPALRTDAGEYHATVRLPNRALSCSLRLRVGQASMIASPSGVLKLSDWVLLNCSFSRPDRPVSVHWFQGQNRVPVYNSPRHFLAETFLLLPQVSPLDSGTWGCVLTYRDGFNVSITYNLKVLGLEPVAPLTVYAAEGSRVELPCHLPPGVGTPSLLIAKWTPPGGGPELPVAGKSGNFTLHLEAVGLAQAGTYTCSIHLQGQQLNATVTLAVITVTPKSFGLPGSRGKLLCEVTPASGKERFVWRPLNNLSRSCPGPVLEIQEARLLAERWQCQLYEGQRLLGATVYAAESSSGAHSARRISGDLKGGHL
- METHOD: ELISA using murine LAG3-Fc antigen
OBSERVATION_TYPE: binding result

binder="bivalent P21A03 aVH-Fc (Fc fusion) EVQLVESGGGLVQPGGSLRLSCAASGFNIKDTCIGWVRRAPGKGTELVAEICEDIGYTRYADSVKGRFTISADTSKNTAYLQMNSLRAEDTAVYYCAANEHSVGFNYWGQGTTVTVSSGGGGSGGGGSDKTHTCPPCPAPEAAGGPSVFLFPPKPKDTLMISRTPEVTCVVVDVSHEDPEVKFNWYVDGVEVHNAKTKPREEQYNSTYRVVSVLTVLHQDWLNGKEYKCKVSNKALGAPIEKTISKAKGQPREPQVYTLPPSRDELTKNQVSLTCLVKGFYPSDIAVEWESNGQPENNYKTTPPVLDSDGSFFLYSKLTVDKSRWQQGNVFSCSVMHEALHNHYTQKSLSLSPGK" reading="no binding"
binder="bivalent P10D1 aVH-Fc (Fc fusion) EVQLVESGGGLVQPGGSLRLSCAASGFSIKDTCIAWVRRAPGKGTELVAEICEDIGYTRYADSVKGRFTISADTSKNTAYLQMNSLRAEDTAVYYCAAKEAGVGFDYWGQGTTVTVSSGGGGSGGGGSDKTHTCPPCPAPEAAGGPSVFLFPPKPKDTLMISRTPEVTCVVVDVSHEDPEVKFNWYVDGVEVHNAKTKPREEQYNSTYRVVSVLTVLHQDWLNGKEYKCKVSNKALGAPIEKTISKAKGQPREPQVYTLPPSRDELTKNQVSLTCLVKGFYPSDIAVEWESNGQPENNYKTTPPVLDSDGSFFLYSKLTVDKSRWQQGNVFSCSVMHEALHNHYTQKSLSLSPGK" reading="no binding"
binder="bivalent 9B4 aVH-Fc (Fc fusion) EVQLVESGGGLVQPGGSLRLSCAASGFNIKDTCIGWVRRAPGKGTELVAEICQDIGYTRYADSVKGRFTISADTSKNTAYLQMNSLRAEDTAVYYCAAVEVAEYFEYWGQGTTVTVSSGGGGSGGGGSDKTHTCPPCPAPEAAGGPSVFLFPPKPKDTLMISRTPEVTCVVVDVSHEDPEVKFNWYVDGVEVHNAKTKPREEQYNSTYRVVSVLTVLHQDWLNGKEYKCKVSNKALGAPIEKTISKAKGQPREPQVYTLPPSRDELTKNQVSLTCLVKGFYPSDIAVEWESNGQPENNYKTTPPVLDSDGSFFLYSKLTVDKSRWQQGNVFSCSVMHEALHNHYTQKSLSLSPGK" reading="no binding"
